# assayProcedure: Body weight in R6/2 mice
# conditions: i.n. daily 50 mg/kg, Day 2

molecule	Body weight (group Mean) / g
CN(C)CCCNC(=N)c1ccc(C(=N)NCCCN(C)C)cc1.Cl.Cl.Cl.Cl [DB213]	21.1

---

# assayProcedure: Body weight in R6/2 mice
# conditions: i.n. daily 300 mg/kg, Day 6

smilesInput	Body weight (group Mean), g
CN(C)CCCNC(=N)c1ccc(C(=N)NCCCN(C)C)cc1.Cl.Cl.Cl.Cl	20.1

---

# assayProcedure: Body weight in R6/2 mice
# conditions: i.n. daily 50 mg/kg, Day 6
testReadout: Body weight (group Mean) (g)

smilesInput	unitOfMeasurement	endpointValue
CN(C)CCCNC(=N)c1ccc(C(=N)NCCCN(C)C)cc1.Cl.Cl.Cl.Cl	g	21.5

---

# assayProcedure: Body weight in R6/2 mice
# conditions: i.n. daily 300 mg/kg, Day 1
testReadout: Body weight (group Mean) (g)

compound	testReadout	endpointValue
CN(C)CCCNC(=N)c1ccc(C(=N)NCCCN(C)C)cc1.Cl.Cl.Cl.Cl [DB213]	Body weight (group Mean)	21.6

---

# assayProcedure: Body weight in R6/2 mice
# conditions: i.n. daily 300 mg/kg, Day 2
testReadout: Body weight (group Mean)

smilesInput	endpointValue
CN(C)CCCNC(=N)c1ccc(C(=N)NCCCN(C)C)cc1.Cl.Cl.Cl.Cl	20.2 g

---

# assayProcedure: Body weight in R6/2 mice
# conditions: i.v. 50 mg/kg (treatment discontinued), Day 7, n 1

molecule	Body weight (group Mean) [g]
CN(C)CCCNC(=N)c1ccc(C(=N)NCCCN(C)C)cc1.Cl.Cl.Cl.Cl [DB213]	16.8

---

# assayProcedure: Body weight in R6/2 mice
# conditions: i.v. 50 mg/kg (treatment discontinued), Day 3, n 1
testReadout: Body weight (group Mean)

smilesInput	endpointValue
CN(C)CCCNC(=N)c1ccc(C(=N)NCCCN(C)C)cc1.Cl.Cl.Cl.Cl	16.3 g

---

# assayProcedure: Body weight in R6/2 mice
# conditions: i.n. daily 50 mg/kg, Day 4
testReadout: Body weight (group Mean) (g)

compound	endpointValue
CN(C)CCCNC(=N)c1ccc(C(=N)NCCCN(C)C)cc1.Cl.Cl.Cl.Cl [DB213]	22

---

# assayProcedure: Body weight in R6/2 mice
# conditions: i.n. daily 100 mg/kg, Day 4

smilesInput	Body weight (group Mean) [g]
CN(C)CCCNC(=N)c1ccc(C(=N)NCCCN(C)C)cc1.Cl.Cl.Cl.Cl	21.6

---

# assayProcedure: Body weight in R6/2 mice
# conditions: i.n. daily 300 mg/kg, Day 7
testReadout: Body weight (group Mean) (g)

smilesInput	unitOfMeasurement	endpointValue
CN(C)CCCNC(=N)c1ccc(C(=N)NCCCN(C)C)cc1.Cl.Cl.Cl.Cl	g	20.4

Recorded values, source patent US10143666B2.
